Tested on: M. tuberculosis H37Rv growth inhibition, glycerol-free medium
assay: Mycobacterium tuberculosis H37Rv growth inhibition, glycerol free medium, confirmatory screen (AID 504645);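 note: bacteria grown one week before the viability dye was added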
measurement-setup: measured here: 90% growth inhibition
Where a SMILES comes first, the peptide text is derived from it. The star is where a group is joined. Cbz = O=C(OCc1ccccc1)*
Consider the following compounds and their measured IC90 readings.

{"compound": "CCOc1ccc(-c2cc(C)[n+](CCc3ccc(OC)c(OC)c3)c(-c3ccc(OCC)cc3)c2)cc1", "IC90": "1.03 µM"}
{"compound": "Cc1ccc2ccc3ccc(C)nc3c2n1", "IC90": "0.78 µM"}
{"compound": "COC(=O)C(C)Sc1ncnc2c1nnn2-c1ccc(F)cc1 (stereo not given)", "IC90": "4.38 µM"}
{"compound": "O=C(c1ccc(CNc2c(N3CCCC3)c(=O)c2=O)cc1)N1CCc2ccccc2C1", "IC90": "> 25 µM"}
{"compound": "CCOC(=O)CSc1ncnc2c1cnn2-c1ccc(Cl)cc1", "IC90": "> 25 µM"}
{"compound": "COC(=O)C(C)Oc1ccc(Cc2ncc(C(F)(F)F)cc2Cl)cc1 (stereo not given)", "IC90": "4.01 µM"}
{"compound": "COC(=O)CCc1nc2c(C#N)c(-c3ccc(Cl)cc3)ccn2n1", "IC90": "3.8 µM"}
{"compound": "CC1CCCN(C(=O)c2ccc(CNc3c(N4CCCCC4)c(=O)c3=O)cc2)C1 (stereo not given)", "IC90": "> 25 µM"}
{"compound": "CCOC(=O)CNC(=O)[C@H](Cc1ccccc1)NC(=O)OCc1ccccc1 (Cbz-Phe-Gly-OEt)", "IC90": "3.09 µM"}
{"compound": "COc1ccc(N2CCN(C(=O)c3ccc(CNc4c(N5CCOCC5)c(=O)c4=O)cc3)CC2)cc1", "IC90": "> 25 µM"}
